- Measured Target: uPAR-expressing HEC-265 human endometrial adenocarcinoma cells (Homo sapiens, UniProt Q03405)
- Sequence (Q03405 23-335): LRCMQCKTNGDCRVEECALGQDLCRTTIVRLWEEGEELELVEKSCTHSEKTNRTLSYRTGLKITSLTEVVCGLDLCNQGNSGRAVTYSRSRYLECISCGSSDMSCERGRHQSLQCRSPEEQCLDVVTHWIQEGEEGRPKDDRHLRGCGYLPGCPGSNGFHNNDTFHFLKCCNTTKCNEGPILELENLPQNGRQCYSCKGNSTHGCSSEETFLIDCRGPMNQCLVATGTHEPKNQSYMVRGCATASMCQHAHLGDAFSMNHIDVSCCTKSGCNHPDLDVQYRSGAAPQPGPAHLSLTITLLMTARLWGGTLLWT
*1 amine or outer side, *2 acyl side, *3 side chain or, on linkers, in order; H or OH if unused. Where a SMILES comes first, the peptide text is derived from it. Bridges are numbered along the chain shown (N, C = ends). [ ]: non-standard residue; d: D form. The star is where a group is joined. DOTA = O=C(O)CN1CCN(CC(=O)O)CCN(CC(=O)*)CCN(CC(=O)O)CC1; Hyp = O=C(O)[C@@H]1C[C@@H](O)CN1; Cit = NC(=O)NCCC[C@H](N)C(=O)O; dOrn = NCCC[C@@H](N)C(=O)O; Nva = CCC[C@H](N)C(=O)O; Pentanoyl = CCCCC(=O)*; CO = O=C([*:1])[*:2]; NHPr = CCCN*
Exercise: state measured IC50 for each of the molecules provided.

Prompt: Indicate its recorded IC50; the molecule in question is CCCCC(=O)N[C@H]1CSSC[C@@H](C(N)=O)NC(=O)[C@H](CC(C)C)NC(=O)[C@H]([C@@H](C)CC)NC(=O)[C@@H]2CCCN2C(=O)[C@@H]2CCCN2C(=O)[C@H](Cc2ccccc2)NC(=O)[C@H](Cc2ccc(O)cc2)NC(=O)[C@H](CCCCNC(=O)CN2CCN(CC(=O)O)CCN(CC(=O)O)CCN(CC(=O)O)CC2)NC(=O)[C@H](CCCNC(N)=O)NC1=O [UPAR-396] (Pentanoyl-C[Cit]K(DOTA)YFPPILC-NH2; disulfide 1-10)
Response: ≤ 10 nM

Prompt: Indicate its recorded IC50; the molecule in question is CCCNC(=O)N[C@H]1CSSC[C@@H](C(N)=O)NC(=O)[C@H](CCC)NC(=O)[C@H]([C@@H](C)CC)NC(=O)[C@@H]2C[C@@H](O)CN2C(=O)[C@@H]2CCCN2C(=O)[C@H](Cc2ccccc2)NC(=O)[C@H](Cc2ccc(O)cc2)NC(=O)[C@H](CCCCNC(=O)CN2CCN(CC(=O)O)CCN(CC(=O)O)CCN(CC(=O)O)CC2)NC(=O)[C@H](CCCNC(N)=O)NC1=O [UPAR-210] ({NHPr-CO}-C[Cit]K(DOTA)YFP[Hyp]I[Nva]C-NH2; disulfide 1-10)
Response: ≤ 10 nM

Prompt: Indicate its recorded IC50; the molecule in question is CCCCC(=O)N[C@H]1CSSC[C@@H](C(N)=O)NC(=O)[C@H](CCC)NC(=O)[C@H]([C@@H](C)CC)NC(=O)[C@@H](CCCN)NC(=O)[C@@H]2CCCN2C(=O)[C@H](Cc2ccccc2)NC(=O)[C@H](Cc2ccc(O)cc2)NC(=O)[C@H](CCC(N)=O)NC(=O)[C@H](CCCNC(=N)N)NC1=O [UPAR-438] (Pentanoyl-CRQYFP[dOrn]I[Nva]C-NH2; disulfide 1-10)
Response: 12.6 to 31.6 nM

###

Exercise: state measured IC50 for each of the compounds provided.
- Measured Target: uPAR-expressing HEC-265 human endometrial adenocarcinoma cells (Homo sapiens, UniProt Q03405)
Where a SMILES comes first, the peptide text is derived from it. Bridges are numbered along the chain shown (N, C = ends). [ ]: non-standard residue; d: D form. The star is where a group is joined. DOTA = O=C(O)CN1CCN(CC(=O)O)CCN(CC(=O)*)CCN(CC(=O)O)CC1; 2Nal = N[C@@H](Cc1ccc2ccccc2c1)C(=O)O; Hyp = O=C(O)[C@@H]1C[C@@H](O)CN1; Pentanoyl(4-Me) = CC(C)CCC(=O)*; Cit = NC(=O)NCCC[C@H](N)C(=O)O; Nva = CCC[C@H](N)C(=O)O; Pentanoyl = CCCCC(=O)*

Prompt: Indicate its recorded IC50; the compound in question is CC[C@H](C)[C@@H]1NC(=O)[C@@H](C)NC(=O)[C@@H]2CCCN2C(=O)[C@H](Cc2ccc3ccccc3c2)NC(=O)[C@H](Cc2ccc(O)cc2)NC(=O)[C@H](CCC(N)=O)NC(=O)[C@H](CCCNC(N)=O)NC(=O)[C@@H](NC(=O)CCC(C)C)CSSC[C@@H](C(N)=O)NC(=O)[C@H](CC(C)C)NC1=O [UPAR-147] ({Pentanoyl(4-Me)}-C[Cit]QY[2Nal]P[dA]ILC-NH2; disulfide 1-10)
Response: 12.6 to 31.6 nM

Prompt: Indicate its recorded IC50; the compound in question is CCCCC(=O)N[C@H]1CSSC[C@@H](C(N)=O)NC(=O)[C@H](CCC)NC(=O)[C@H]([C@@H](C)CC)NC(=O)[C@@H]2C[C@@H](O)CN2C(=O)[C@@H]2C[C@@H](O)CN2C(=O)[C@H](Cc2ccccc2)NC(=O)[C@H](Cc2ccc(O)cc2)NC(=O)[C@H](CCCCNC(=O)CN2CCN(CC(=O)O)CCN(CC(=O)O)CCN(CC(=O)O)CC2)NC(=O)[C@H](CCCNC(N)=O)NC1=O [UPAR-403] (Pentanoyl-C[Cit]K(DOTA)YF[Hyp][Hyp]I[Nva]C-NH2; disulfide 1-10)
Response: ≤ 10 nM

###

Exercise: state measured Kd for each of the molecules provided.
- Measured Target: human uPAR (uPAR-Fc) (Homo sapiens, UniProt Q03405)
- Construct: comprising amino acids Leu23-Arg303 according to UniProt entry Q03405.1; purchased R&D Systems 10378-UK-100
- Sequence (Q03405 23-303): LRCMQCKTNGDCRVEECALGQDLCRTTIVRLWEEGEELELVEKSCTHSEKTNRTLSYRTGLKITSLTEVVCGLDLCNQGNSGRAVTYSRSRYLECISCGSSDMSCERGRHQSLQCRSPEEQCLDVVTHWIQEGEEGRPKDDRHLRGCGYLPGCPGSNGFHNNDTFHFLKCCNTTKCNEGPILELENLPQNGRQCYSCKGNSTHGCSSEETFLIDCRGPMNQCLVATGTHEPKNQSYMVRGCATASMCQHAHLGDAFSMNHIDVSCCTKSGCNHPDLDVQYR
- Experiment Notes: Surface plasmon resonance (SPR) assay, single cycle kinetics
- Type: binding
- Assay Conditions: pKD category for uPAR SPR activity assay; uPAR-Fc on Protein A-Chip, 25°C; read-out: pKD CAT (converted)
*1 amine or outer side, *2 acyl side, *3 side chain or, on linkers, in order; H or OH if unused. Where a SMILES comes first, the peptide text is derived from it. Bridges are numbered along the chain shown (N, C = ends). Side-chain parts run from the residue outwards. [ ]: non-standard residue; d: D form. The star is where a group is joined. X11 = O=C(CCCC[C@@H]1SC[C@@H]2NC(=O)N[C@@H]21)NCCCOCCOCCOCCCN*; DOTA = O=C(O)CN1CCN(CC(=O)O)CCN(CC(=O)*)CCN(CC(=O)O)CC1; Hyp = O=C(O)[C@@H]1C[C@@H](O)CN1; Pentanoyl(4-Me) = CC(C)CCC(=O)*; Cit = NC(=O)NCCC[C@H](N)C(=O)O; Gly(cPr) = N[C@H](C(=O)O)C1CC1; NMeK = CN[C@@H](CCCCN)C(=O)O; Suc = O=C(CCC(=O)[*:2])[*:1]; Nle = CCCC[C@H](N)C(=O)O; Nva = CCC[C@H](N)C(=O)O; Pentanoyl = CCCCC(=O)*; AEEA = NCCOCCOCC(=O)O

Prompt: Given CCCCC(=O)N[C@H]1CSSC[C@@H](C(N)=O)NC(=O)[C@H](CCC)NC(=O)[C@H]([C@@H](C)CC)NC(=O)[C@H](CCCCN)N(C)C(=O)[C@@H]2CCCN2C(=O)[C@H](Cc2ccccc2)NC(=O)[C@H](Cc2ccc(O)cc2)NC(=O)[C@H](CCCCNC(=O)CCC(=O)NCCCOCCOCCOCCCNC(=O)CCCC[C@@H]2SC[C@@H]3NC(=O)N[C@@H]32)NC(=O)[C@H](CCCNC(N)=O)NC1=O [UPAR-317] (Pentanoyl-C[Cit]K([Suc-X11])YFP[NMeK]I[Nva]C-NH2; disulfide 1-10) , report its Kd on human uPAR (uPAR-Fc) (Homo sapiens, UniProt Q03405).
Response: 10 to 100 nM

Prompt: Given CC[C@H](C)[C@@H]1NC(=O)[C@@H](C)NC(=O)[C@@H]2CCCN2C(=O)[C@H](Cc2ccccc2)NC(=O)[C@H](Cc2ccc(O)cc2)NC(=O)[C@H](CCC(N)=O)NC(=O)[C@@H](C)NC(=O)[C@@H](NC(=O)[C@H](CC(C)C)NC(=O)COCCOCCNC(=O)CN2CCN(CC(=O)O)CCN(CC(=O)O)CCN(CC(=O)O)CC2)CSSC[C@@H](C(N)=O)NC(=O)[C@H](CC(C)C)NC1=O [UPAR-216] ({DOTA-AEEA}-LC[dA]QYFP[dA]ILC-NH2; disulfide 2-11) , report its Kd on human uPAR (uPAR-Fc) (Homo sapiens, UniProt Q03405).
Response: > 100 nM

Prompt: Given CCCC[C@@H]1NC(=O)[C@H](CCCNC(=N)N)NC(=O)[C@@H](NC(=O)[C@H](CC(C)C)NC(=O)[C@H](CC(=O)O)NC(C)=O)CSSC[C@@H](C(N)=O)NC(=O)[C@H](CC(C)C)NC(=O)[C@H]([C@@H](C)CC)NC(=O)[C@H](C)NC(=O)[C@@H]2CCCN2C(=O)[C@H](Cc2ccccc2)NC(=O)[C@@H](Cc2ccc(O)cc2)NC1=O [UPAR-198] (Ac-DLCR[Nle][dY]FPAILC-NH2; disulfide 3-12) , report its Kd on human uPAR (uPAR-Fc) (Homo sapiens, UniProt Q03405).
Response: > 100 nM

Prompt: Given CCCCC(=O)N[C@H]1CSSC[C@@H](C(=O)NCC)NC(=O)[C@H](CCC)NC(=O)[C@H]([C@@H](C)CC)NC(=O)[C@@H]2C[C@@H](O)CN2C(=O)[C@@H]2CCCN2C(=O)[C@H](Cc2ccccc2)NC(=O)[C@H](Cc2ccc(O)cc2)NC(=O)[C@H](CCC(N)=O)NC(=O)[C@H](CCCNC(N)=O)NC1=O [UPAR-146] (Pentanoyl-C[Cit]QYFP[Hyp]I[Nva]C-NHEt; disulfide 1-10) , report its Kd on human uPAR (uPAR-Fc) (Homo sapiens, UniProt Q03405).
Response: 1.58 to 10 nM

Prompt: Given CC(C)CCC(=O)N[C@H]1CSSC[C@@H](C(N)=O)NC(=O)[C@H](CC(C)C)NC(=O)[C@H](C2CC2)NC(=O)[C@@H](C)NC(=O)[C@@H]2CCCN2C(=O)[C@H](Cc2ccccc2)NC(=O)[C@H](Cc2ccc(O)cc2)NC(=O)[C@H](CCC(N)=O)NC(=O)[C@H](CCCNC(N)=O)NC1=O [UPAR-187] ({Pentanoyl(4-Me)}-C[Cit]QYFP[dA][Gly(cPr)]LC-NH2; disulfide 1-10) , report its Kd on human uPAR (uPAR-Fc) (Homo sapiens, UniProt Q03405).
Response: > 100 nM
